Cited source for all entries: patent US6653300B2

- target.desc: Aurora-2 (Homo sapiens, UniProt O14965)
- Sequence (O14965 1-403): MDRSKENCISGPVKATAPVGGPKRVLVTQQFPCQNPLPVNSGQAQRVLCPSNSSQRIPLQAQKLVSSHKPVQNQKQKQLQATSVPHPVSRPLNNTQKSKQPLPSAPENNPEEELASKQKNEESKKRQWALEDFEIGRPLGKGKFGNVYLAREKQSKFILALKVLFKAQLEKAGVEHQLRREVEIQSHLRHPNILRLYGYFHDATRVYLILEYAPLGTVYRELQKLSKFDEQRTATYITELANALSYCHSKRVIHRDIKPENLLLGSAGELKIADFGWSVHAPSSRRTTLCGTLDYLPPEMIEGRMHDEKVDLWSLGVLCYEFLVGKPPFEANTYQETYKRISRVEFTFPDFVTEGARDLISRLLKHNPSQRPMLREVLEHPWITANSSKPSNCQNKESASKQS
Each record here notes measured Ki.

// known answers, use as guide
Cc1cc(Nc2nc(Sc3nccn3C)nc3ccccc23)n[nH]1    1000 to 10000 nM
Cc1cc(Nc2nc(Sc3ccc(NC(=O)CN(C)C(=O)OC(C)(C)C)cc3)nc3ccccc23)n[nH]1    < 100 nM

Exercise: I'd like to know its Ki. The molecule in question is COc1cccc2c(Nc3cc(C)n[nH]3)nc(Sc3ccc(NC(C)=O)cc3)nc12
Solution: < 100 nM

Exercise: What value of Ki has been reported for the following molecule? c1ccc(COCc2nc(Nc3cc(C4CC4)[nH]n3)c3ccccc3n2)cc1
Solution: < 100 nM

Exercise: Can you share its Ki? I mean this molecule: Cc1cccc(Oc2nc(Nc3cc(C4CC4)[nH]n3)c3ccccc3n2)c1
Solution: < 100 nM

Exercise: So what's the measured Ki for this one? c1ccc(Nc2nc(Nc3cc(-c4ccco4)[nH]n3)cc(-c3ccccc3)n2)cc1
Solution: < 100 nM

Exercise: Tell me the measured Ki of Cc1cc(Nc2nc(Sc3ccc(NS(C)(=O)=O)cc3)nc3c(O)cccc23)n[nH]1 , please.
Solution: < 100 nM

Exercise: What does the record list as Ki for Cc1cc(Nc2cc(-c3ccco3)[nH]n2)nc(Nc2ccc(Cl)cc2)n1 ?
Solution: 100 to 1000 nM

Exercise: Please look up its Ki: Cc1cc(Nc2nc(Nc3ccccc3CCO)nc3ccccc23)n[nH]1
Solution: 100 to 1000 nM

###

Overview of recorded melting point for various molecules

Known results for molecules:
Cc1cc(Nc2nc(N(CCO)c3ccccc3)nc3ccccc23)n[nH]1 [IIc-1]    217 °C
COC(=O)c1ccc(Sc2nc(Nc3cc(C4CC4)[nH]n3)c3ccccc3n2)cc1 [IIa-35]    245 to 246 °C
CC(=O)Nc1ccc(Sc2nc(Nc3cc(C)n[nH]3)c3cccc(F)c3n2)cc1 [IIa-78]    257 to 259 °C

Exercise: Could you tell me which melting point is on file for Cc1cc(Nc2nc(Nc3ccc4cn[nH]c4c3)nc3ccccc23)n[nH]1 [IIc-9] ?
Solution: > 250 °C

Exercise: May I ask what melting point has been recorded for Cc1cc(Nc2cc(-c3ccccc3)nc(Sc3ccc(NC(=O)C4CC4)cc3)n2)n[nH]1 [IIIa-16] ?
Solution: 253 to 255 °C

Exercise: I have this molecule here, CCS(=O)(=O)Nc1ccc(Sc2nc(Nc3cc(C)[nH]n3)c3ccccc3n2)cc1 [IIa-55] , and I need its recorded melting point.
Solution: 279 to 280 °C

Exercise: Name the recorded melting point for COc1cccc2c(Nc3cc(C)[nH]n3)nc(Sc3ccc(NS(C)(=O)=O)cc3)nc12 [IIa-66] .
Solution: 275 to 277 °C

Exercise: I have this molecule here, CCc1ccccc1Sc1nc(Nc2cc(C)[nH]n2)c2ccccc2n1 [IIa-5] , and I need its recorded melting point.
Solution: 205 to 208 °C

Exercise: Look at this molecule and give its reported melting point. Cc1cc(Nc2nc(Sc3ccc(NC(=O)CN4CCOCC4)cc3)nc3ccccc23)n[nH]1 [IIa-60]
Solution: 266 to 267 °C

Exercise: Need melting point, item Cc1cc(Nc2nc(Nc3cccc(-c4ccccc4)c3)nc3ccccc23)n[nH]1 [IIc-63]
Solution: 206 to 207 °C

Exercise: Item under review: Cc1cc(Nc2nc(Sc3ccc(NS(=O)(=O)C(C)C)cc3)nc3ccccc23)n[nH]1 [IIa-48] . Reported melting point?
Solution: 294 to 297 °C

###

melting point: recorded values

Cc1cc(Nc2nc(Nc3ccc(C#N)cc3)nc3ccccc23)n[nH]1    293 to 298 °C
Cc1cc(Nc2cc(-c3ccccc3)nc(Sc3ccc(NS(=O)(=O)C(C)C)cc3)n2)n[nH]1    255 to 257 °C
CC(=O)Nc1ccc(Sc2nc(Nc3cc(C)n[nH]3)cc(-c3ccc(OCCCN(C)C)cc3)n2)cc1    219 to 222 °C
c1ccc(OCc2nc(Nc3cc(C4CC4)[nH]n3)c3ccccc3n2)cc1    265 to 267 °C
CCc1cc(Nc2nc(Nc3cc(CC)[nH]n3)c3ccccc3n2)n[nH]1    248 to 252 °C

Exercise: Report melting point for c1ccc(OCCNc2nc(Nc3cc(C4CC4)[nH]n3)c3ccccc3n2)cc1 please.
Solution: 203 °C

Exercise: # melting point lookup, item CNCC(=O)Nc1ccc(Sc2nc(Nc3cc(C)[nH]n3)c3ccccc3n2)cc1
Solution: 242 to 244 °C

Exercise: Can you look up the measured melting point of Cc1cc(Nc2nc(Sc3ccccc3O)nc3ccccc23)n[nH]1 for me?
Solution: 273 to 275 °C

Exercise: Give the measured melting point of c1ccc(Nc2nc(Nc3cc(C4CC4)[nH]n3)cc(-c3ccccc3)n2)cc1 .
Solution: 267 to 269 °C

###

# reported Ki; entries follow
- target.desc: Aurora-2 (Homo sapiens, UniProt O14965)

Exercise: Form field: Ki recorded for Cc1cc(Nc2nc(NCc3cccnc3)nc3ccccc23)n[nH]1 [IIc-10] with Aurora-2 (Homo sapiens, UniProt O14965) (enter value)
Solution: < 100 nM

Exercise: Item c1ccc(CCCNc2nc(Nc3cc(C4CC4)[nH]n3)c3ccccc3n2)cc1 [IIc-47] with Aurora-2 (Homo sapiens, UniProt O14965) - Ki?
Solution: < 100 nM

Exercise: Give recorded Ki with Aurora-2 (Homo sapiens, UniProt O14965) for the following molecule: Cc1cc(Nc2nc(Nc3ccc(C#N)cc3)nc3ccccc23)n[nH]1 [IIc-61]
Solution: < 100 nM
